Target Or System: TkTrm10 (Thermococcus kodakarensis, UniProt Q5JD38, D206A/D245A)
Sequence (Q5JD38 whole entry D206A/D245A): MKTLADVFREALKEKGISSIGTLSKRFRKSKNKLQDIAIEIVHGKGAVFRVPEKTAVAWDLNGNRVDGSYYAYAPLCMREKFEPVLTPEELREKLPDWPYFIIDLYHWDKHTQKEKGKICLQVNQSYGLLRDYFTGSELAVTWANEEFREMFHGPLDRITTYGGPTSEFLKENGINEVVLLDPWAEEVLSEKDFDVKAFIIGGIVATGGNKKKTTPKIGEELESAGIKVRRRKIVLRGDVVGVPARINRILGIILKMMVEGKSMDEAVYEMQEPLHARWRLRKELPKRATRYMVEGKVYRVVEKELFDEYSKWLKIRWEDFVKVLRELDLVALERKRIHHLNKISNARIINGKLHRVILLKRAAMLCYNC
Assay Protocol: biochemical
Observation Type: pKd
Units for pKd: none; it is -log10 of a concentration expressed in mol/L.

Exam item: Given the entry C[S+](CC[C@H](N)C(=O)O)C[C@H]1O[C@@H](n2cnc3c(N)ncnc32)[C@H](O)[C@@H]1O (stereo partly shown) , report its measured pKd.
Marked response: 4.69

---

Target Or System: TkTrm10 (Thermococcus kodakarensis, UniProt Q5JD38, D206N/D245N)
Sequence (Q5JD38 whole entry D206N/D245N): as the sequence (Q5JD38 whole entry D206A/D245A) above, with A206N, A245N counted along it
Assay Protocol: biochemical
Observation Type: pKd
Lab note — pKd values are minus log10 of concentrations in M.

Exam item: Sample C[S+](CC[C@H](N)C(=O)O)C[C@H]1O[C@@H](n2cnc3c(N)ncnc32)[C@H](O)[C@@H]1O (stereo partly shown) [SAM] — what was its pKd?
Marked response: 4.71

---

Target Or System: TkTrm10 (Thermococcus kodakarensis, UniProt Q5JD38, D206L)
Sequence (Q5JD38 whole entry D206L): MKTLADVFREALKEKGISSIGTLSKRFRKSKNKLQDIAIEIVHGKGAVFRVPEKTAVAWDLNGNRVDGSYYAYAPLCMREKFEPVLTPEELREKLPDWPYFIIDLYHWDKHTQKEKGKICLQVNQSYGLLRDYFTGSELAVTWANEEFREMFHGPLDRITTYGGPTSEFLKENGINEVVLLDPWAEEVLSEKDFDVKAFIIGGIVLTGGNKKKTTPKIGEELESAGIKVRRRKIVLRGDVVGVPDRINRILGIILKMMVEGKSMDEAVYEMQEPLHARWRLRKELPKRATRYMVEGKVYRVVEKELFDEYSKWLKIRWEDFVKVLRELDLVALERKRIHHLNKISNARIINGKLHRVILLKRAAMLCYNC
Assay Protocol: biochemical
Observation Type: Kd (µM)
Please reply with the bare figure in µM and do not write the unit itself.

Exam item: Kd for C[S+](CC[C@H](N)C(=O)O)C[C@H]1O[C@@H](n2cnc3c(N)ncnc32)[C@H](O)[C@@H]1O (stereo partly shown) ?
Marked response: 68

---

Target Or System: UniProtKB Q5JD38
Observation Type: pKd
Convention used: pKd is expressed as -log10 of the molar concentration.

Exam item: Fill in: pKd of C[S+](CC[C@H](N)C(=O)O)C[C@H]1O[C@@H](n2cnc3c(N)ncnc32)[C@H](O)[C@@H]1O (stereo partly shown) is ___
Marked response: 5.03
